Listing of recorded EC50 by entry.
- tested target: T1, Human PD-1 expressed on CHO-K1 cells (CHO-K1/hPD-1) (human, UniProt Q15116 25-288)
- T1 construct: whole, on cells; also called CHO-K1 cells overexpressing human PD-1
- T1 sequence (Q15116 25-288): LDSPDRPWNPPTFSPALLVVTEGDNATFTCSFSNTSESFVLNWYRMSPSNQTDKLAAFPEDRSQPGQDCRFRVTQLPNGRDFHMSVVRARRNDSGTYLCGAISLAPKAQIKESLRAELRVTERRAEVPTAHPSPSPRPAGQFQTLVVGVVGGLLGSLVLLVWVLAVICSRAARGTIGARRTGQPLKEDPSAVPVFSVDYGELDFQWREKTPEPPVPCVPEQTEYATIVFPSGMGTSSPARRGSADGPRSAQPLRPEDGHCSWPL
- procedure summary: FACS, CHO-K1/hPD-1 cells
Entry rule: numbers only, all in nM.

PR002473 (antibody, human IgG1, V domains shown, Heavy-chain-only antibody (HCAb), human IgG1 Fc; two heavy chains, no light chain; also called R4004P541H11) VH: EVQLVETGGGLIQPGGSLRLSCAASGFNVSSHYMSWVRQAPGKGLEWVSIIHSGGSTYYADSVKGRFTISRDNSKNRLYLQMNSLIAEDTAVYYCARAIAVAEKNGYNYPFNYWGQGTLVTVSS : 25.6
PR000674 (antibody, human IgG4 S228P, kappa, V domains shown, Fully human recombinant H2L2 antibody, human IgG4, kappa light chain; also called 4004_12H9C1) VH: QVQLVESGGGVVQPGKSLRLSCTVSGLTFSDNGMHWVRQAPGRGLEWMSVIWYDGSKKYYADSVKGRFTISRDNSKNTLYLQMNNMRVEDTAVYYCATNSDYWGQGTLVTVSS VL: EIVLTQSPATLSLSPGERATLSCRASQSVSSYLAWYQQKPGQAPRLLIYDTSKRATGIPARFSGSGSGTDFTLTISSLEPEDFAVYYCQQHNNWIFTFGPGTKVDIKR : 1.94

Now for a further binder.
Return EC50 (reported value) for this binder: PR005149 (VHH, Monovalent single-domain (VH) variant of PR002481 with Flag-6His tag) VHH: EVQLVETGGGLIQPGGSLRLSCAASGFNVSSHYMSWVRQAPGKGREWVSIIDKAGSGYYADSVKGRFTISRDNSKNRLYLQMNSLRAEDTAMYYCARATEVREKQGYNYPFNYWGQGTLVTVSS
10.9

Reference source: patent US20240034792A1
